target: Protein arginine N-methyltransferase 1 (Rattus norvegicus, UniProt Q63009)
Sequence (Q63009 whole entry): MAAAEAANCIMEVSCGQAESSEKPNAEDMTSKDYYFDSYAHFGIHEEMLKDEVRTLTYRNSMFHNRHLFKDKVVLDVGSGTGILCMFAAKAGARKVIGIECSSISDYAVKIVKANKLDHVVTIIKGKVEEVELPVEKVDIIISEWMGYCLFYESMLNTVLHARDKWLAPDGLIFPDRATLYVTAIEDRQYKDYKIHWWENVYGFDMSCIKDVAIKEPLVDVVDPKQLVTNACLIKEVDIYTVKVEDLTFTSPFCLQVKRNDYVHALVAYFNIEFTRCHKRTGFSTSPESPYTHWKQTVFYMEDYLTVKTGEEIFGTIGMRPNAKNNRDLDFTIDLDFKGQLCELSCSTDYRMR

smiles representation | IC50
N=C(N)NCCC[C@H](NC(=O)[C@H](CCCCN)NC(=O)[C@@H]1CCCN1C(=O)Cc1ccc(O)cc1)C(N)=O | > 100 µM

---

target: N-terminal Xaa-Pro-Lys N-methyltransferase 1 (Homo sapiens); experiment: Inhibition of recombinant human full-length His6-tagged NTMT1 (1 to 222 residues) expressed in Escherichia coli BL21-CodonPlus(DE3)-RIL competent cells pre-incubated for 10 mins in presence of SAM and SAHH before RCC1-6 addition and measured after 15 mins by fluorescence based SAHH-coupled assay
Sequence (Q9BV86 whole entry, the tested form may be a part): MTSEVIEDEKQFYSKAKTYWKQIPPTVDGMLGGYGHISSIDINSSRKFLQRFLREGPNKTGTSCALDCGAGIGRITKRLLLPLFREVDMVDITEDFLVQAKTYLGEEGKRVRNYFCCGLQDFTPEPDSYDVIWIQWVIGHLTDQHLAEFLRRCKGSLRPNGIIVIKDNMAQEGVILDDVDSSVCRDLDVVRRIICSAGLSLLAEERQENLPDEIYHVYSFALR
pIC50: −log10 of the molar value. Where a SMILES comes first, the peptide text is derived from it. [ ]: non-standard residue; d: D form. The star is where a group is joined. ξ: configuration not given here. ξαMeP = CC1(C(=O)O)CCCN1; PhAc = O=C(Cc1ccccc1)*; Bz = O=C(c1ccccc1)*
Tag: Y if measured pIC50 is not below 5, N if it is.

compound | category
N=C(N)NCCC[C@H](NC(=O)[C@H](CCCCN)NC(=O)[C@@H]1CCCN1C(=O)CCc1ccc(O)cc1)C(N)=O | Y
N=C(N)NCCC[C@H](NC(=O)[C@H](CCCCN)NC(=O)[C@@H]1CCCN1C(=O)c1ccco1)C(N)=O | N
N=C(N)NCCC[C@H](NC(=O)[C@H](CCCCN)NC(=O)[C@@H]1CCCN1C(=O)C1CCCCC1)C(N)=O | N
N=C(N)NCCC[C@H](NC(=O)[C@H](CCCCN)NC(=O)[C@@H]1CCCN1C(=O)Cc1ccc(N)cc1)C(N)=O | Y
N=C(N)NCCC[C@H](NC(=O)[C@H](CCCCN)NC(=O)[C@@H]1CCCN1C(=O)Cc1ccccc1)C(N)=O (PhAc-Pro-Lys-Arg-NH2) | Y
N=C(N)NCCC[C@H](NC(=O)[C@H](CCCCN)NC(=O)[C@@H]1CCCN1CCc1ccc(O)cc1)C(N)=O | N
NCCCC[C@H](NC(=O)[C@@H]1CCCN1C(=O)Cc1ccc(O)cc1)C(N)=O | N
N=C(N)NCCC[C@H](NC(=O)[C@H](CCCCN)NC(=O)[C@@H]1CCCN1C(=O)c1ccccc1)C(N)=O (Bz-Pro-Lys-Arg-NH2) | N
N=C(N)NCCC[C@@H](NC(=O)[C@H](CCCCN)NC(=O)[C@@H]1CCCN1C(=O)Cc1ccc(O)cc1)C(N)=O | Y
N=C(N)NCCC[C@H](NC(=O)[C@H](CCCCN)NC(=O)c1ccccc1NC(=O)Cc1ccc(O)cc1)C(N)=O | N
CC1(C(=O)N[C@@H](CCCCN)C(=O)N[C@@H](CCCNC(=N)N)C(N)=O)CCCN1C(=O)Cc1ccccc1 (stereo partly drawn) (PhAc-[ξαMeP]-Lys-Arg-NH2) | N
N=C(N)NCCC[C@H](NC(=O)[C@H](CCCCN)NC(=O)[C@@H]1CCCN1C(=O)C1CCCC1)C(N)=O | N
NCCCC[C@H](NC(=O)[C@H](CCCCN)NC(=O)[C@@H]1CCCN1C(=O)Cc1ccc(O)cc1)C(N)=O | Y
N=C(N)NCC[C@H](CC(N)=O)NC(=O)[C@H](CCCCN)NC(=O)[C@@H]1CCCN1C(=O)Cc1ccc(O)cc1 | Y
C[C@@H](O)[C@H](NC(=O)[C@H](CCCCN)NC(=O)[C@@H]1CCCN1C(=O)Cc1ccc(O)cc1)C(N)=O | Y
N=C(N)NCCC[C@H](NC(=O)C[C@@H](CCCN)NC(=O)[C@@H]1CCCN1C(=O)Cc1ccc(O)cc1)C(N)=O | N
C[C@H](NC(=O)[C@H](CCCCN)NC(=O)[C@@H]1CCCN1C(=O)Cc1ccc(O)cc1)C(N)=O | Y
N=C(N)NCCC[C@H](NC(=O)[C@H](CCCCN)NC(=O)[C@@H]1CCCN1C(=O)Cc1ccc(O)cc1)C(N)=O | Y
N=C(N)NCCC[C@H](NC(=O)[C@H](CCCCN)NC(=O)c1cccc(NC(=O)Cc2ccc(O)cc2)c1)C(N)=O | N
COc1ccc(CC(=O)N2CCC[C@H]2C(=O)N[C@@H](CCCCN)C(=O)N[C@@H](CCCNC(=N)N)C(N)=O)cc1 | N
